System: Streptococcus pyogenes SSI-9
Assay: Antibacterial activity assay of bead-derived peptides (three concentrations)
Assay type: cell-based
Parameters: key: +++: inhibition by the 640-fold diluted peptide solution; ++: inhibition by the 160-fold diluted solution; +: inhibition by the 40-fold diluted solution; -: no inhibition
Conditions: S. pyogenes, bead-derived peptide solution, three concentrations
Where a SMILES comes first, the peptide text is derived from it. [ ]: non-standard residue; d: D form. The star is where a group is joined. NHCH2CH2OH = OCCN*; For = O=C*
measured metric: antibacterial activity

compound	value reported
CC(C)C[C@@H](NC(=O)[C@H](C)NC(=O)CNC(=O)[C@@H](NC=O)C(C)C)C(=O)N[C@@H](C)C(=O)N[C@H](CC(C)C)C(=O)N[C@H](C(=O)N[C@@H](C(=O)N[C@@H](Cc1c[nH]c2ccccc12)C(=O)N[C@H](CC(C)C)C(=O)N[C@@H](Cc1c[nH]c2ccccc12)C(=O)N[C@@H](C(=O)N[C@@H](Cc1c[nH]c2ccccc12)C(=O)N[C@@H](C(=O)N[C@@H](Cc1c[nH]c2ccccc12)C(=O)NCCO)C(C)C)[C@H](C)O)C(C)C)C(C)C [compound 65] (For-VGA[dL]A[dL]V[dV]W[dL]W[dT]W[dV]W-NHCH2CH2OH)	+
CC(C)C[C@@H](NC(=O)[C@H](C)NC(=O)[C@H](NC(=O)[C@H](C)NC(=O)CNC(=O)[C@@H](NC=O)C(C)C)C(C)C)C(=O)N[C@H](C(=O)N[C@@H](C(=O)N[C@@H](Cc1c[nH]c2ccccc12)C(=O)N[C@H](CC(C)C)C(=O)N[C@@H](Cc1c[nH]c2ccccc12)C(=O)N[C@H](CC(C)C)C(=O)N[C@@H](Cc1c[nH]c2ccccc12)C(=O)N[C@@H](C(=O)N[C@@H](Cc1c[nH]c2ccccc12)C(=O)NCCO)C(C)C)[C@H](C)O)C(C)C [compound 6160] (For-VGA[dV]A[dL]V[dT]W[dL]W[dL]W[dV]W-NHCH2CH2OH)	+
